- Test system: HCT-15
- ASSAY OVERVIEW: NCI screen, growth of human tumor cells: Colon Cancer HCT-15
- Format: cell-based
- RUN PARAMETERS: HCT-15 (Colon Cancer), 10^−4 molar

[
  {
    "MOLECULE": "O=S1(=O)OCCOS(=O)(=O)C1c1nc(Cl)c(Cl)nc1Cl",
    "UNIT SYMBOL": "%",
    "percent of growth of human tumor cells": 7
  },
  {
    "MOLECULE": "CC1(C)OCC(COC(=O)C(=O)C2(Cc3ccc4c(c3)C(=O)c3ccccc3C4=O)S(=O)(=O)OCCOS2(=O)=O)O1 (centres unmarked)",
    "UNIT SYMBOL": "%",
    "percent of growth of human tumor cells": "−12"
  },
  {
    "MOLECULE": "CCOCC1(CC2=C(C)C(=O)c3ccccc3C2=O)S(=O)(=O)OCCOS1(=O)=O",
    "UNIT SYMBOL": "%",
    "percent of growth of human tumor cells": 15
  },
  {
    "MOLECULE": "CC=CC(=O)C1(C2=C(Cl)C(=O)c3ccccc3C2=O)S(=O)(=O)OCCOS1(=O)=O",
    "UNIT SYMBOL": "%",
    "percent of growth of human tumor cells": "−59"
  },
  {
    "MOLECULE": "O=S1(=O)OCCOS(=O)(=O)C1Cc1nc2ccccc2[nH]1",
    "UNIT SYMBOL": "%",
    "percent of growth of human tumor cells": 4
  },
  {
    "MOLECULE": "O=S1(=O)OCCOS(=O)(=O)C1C1c2ccccc2-c2ccccc21 [NSC 686562, ethylene 9-fluorenylmethanedisulfonate]",
    "UNIT SYMBOL": "%",
    "percent of growth of human tumor cells": 15
  },
  {
    "MOLECULE": "O=C1C(Cl)=C(C2S(=O)(=O)OCCOS2(=O)=O)C(=O)c2ccccc21",
    "UNIT SYMBOL": "%",
    "percent of growth of human tumor cells": 17
  },
  {
    "MOLECULE": "Cc1ccc2ccccc2c1CC1S(=O)(=O)OCCOS1(=O)=O",
    "UNIT SYMBOL": "%",
    "percent of growth of human tumor cells": "−49"
  }
]

These entries and their values trace back to patent US8124793B2.
